Ref: the supplement of paper PMC10201428

relative integration efficiency (log2) by entry:
- Tested on: VchCAST RNA-guided transposition machinery (E. coli BL21(DE3) host, lacZ target)
- METHOD DESCRIPTION: relative integration efficiency (T-RL orientation) vs wild-type transposon end (log2 (normalized fold change)); transposon end mutated: right end (5 bp flank + 75 bp right end); higher = more efficient transposition
MEASURED QUANTITY: relative integration efficiency (log2)

>>> data_value("ACATTTGTTGATACAACCATTAAATGATAATTACACCCATAAATTGATAATGATGACACCGAATTTAACTATAACGCTCTGATCATAGTCAGACCAACATTGCTACGACCCGTATTCGCACCGACAC")
-1.3
>>> data_value("ACATTTGTTGATACAACCATAAAATGATAATTACACCCATAAATTGATAATTATCACCAAAATAAATTGATATTGCCTCTGATCATAGTCAGACCAACATTGCTACGACCCGTATTCGCACCGACAC")
-0.112
>>> data_value("ACATTTGTTGATACAACCATAAAATGATAATTACACAACGCCCGGTCGCCGGCGACACAAACGCCCGGTCGCGGTAAGAGGATCATAGTCAGACCAACATTGCTACGACCCGTATTCGCACCGACAC")
-2.42
>>> data_value("ACATTTGTTGATACAACCATAAGTTGATATTTTCAACCATAAGTTGATATTTTTCACAACCATAAAATGATAATTACTCTGATCATAGTCAGACCAACATTGCTACGACCCGTATTCGCACCGACAC")
0.228
>>> data_value("ACATTTGTTGATACAACCATAAAATGATAATTACACCCATAAATTGATAATTATCACCAAACGCCCGGTCGCGGTAAGAGGATCATAGTCAGACCAACATTGCTACGACCCGTATTCGCACCGACAC")
-0.505

* * *

- Test system: VchCAST RNA-guided transposition machinery (E. coli BL21(DE3) host, lacZ target)
- METHOD DESCRIPTION: relative integration efficiency (T-LR orientation) vs wild-type transposon end (log2 (normalized fold change)); transposon end mutated: left end; higher = more efficient transposition
relative integration efficiency (log2) by entry:
MEASURED QUANTITY: relative integration efficiency (log2)

>>> data_value("AATGTTGTTGATGCACCCATAAATTGATATTGCATAATTATTTATAATCAGCAACTTAACCACAAAACAACCATAAGTTGATATTTTACAAAAGTTGGTATTCAACTATAAAATGTGAATCGAGTATTTCAGCAAAACTACTGCAGTAAGAA")
-1.34
>>> data_value("AATGTTGTTGATGCAACCATAAAGTGATATTTAATAACAACCATATATTGATATCTCACAAAACAACCATAAGTTGATATTTTTGTGAATCGAGTATTTCAGCAAAACTACTGCAGTAAGAAAGTTACTTCGTGGTATGGGAGGATCAAGGA")
-3.02

* * *

relative integration efficiency (log2) by entry:
- System: VchCAST RNA-guided transposition machinery (E. coli BL21(DE3) host, lacZ target)
- METHOD DESCRIPTION: relative integration efficiency (T-LR orientation) vs wild-type transposon end (log2 (normalized fold change)); transposon end mutated: right end (5 bp flank + 75 bp right end); higher = more efficient transposition
MEASURED QUANTITY: relative integration efficiency (log2)

>>> data_value("ACATTTGTTGATACAACCATAAAATGAGCCGTACACCCATAAATTGATAATTATCACACCCATAAATTGATATTGCCTCTGATCATAGTCAGACCAACATTGCTACGACCCGTATTCGCACCGACAC")
-0.26
>>> data_value("ACATTTTGGTATACAACCATAAAATGATAATTACACCCATAAATTGATAATTATCACACCCATAAATTGATATTGCCTCTGATCATAGTCAGACCAACATTGCTACGACCCGTATTCGCACCGACAC")
-6.61
>>> data_value("ACATTTGTTGATATGTTGATACAACCATAAAATGATAATTACACCCATAAATTGATAATTATCACACCCATAAATTGATATTGCCTCTGATCATAGTCAGACCAACATTGCTACGACCCGTATTCGC")
0.26
